# Lookup of reported IC50 keyed by entry
# TESTED SYSTEM: EGFR exon 20 SVD Ins D770_N771 (Ba/F3 cells) (Homo sapiens, UniProt P00533, INS770SVD)
# Construct: expressed in transfected cells; host or cells: Ba/F3 (murine pro-B cells), retroviral transduction, puromycin selection, IL3-independent pool
# Sequence (P00533 with tags, fused parts or gaps INS770SVD): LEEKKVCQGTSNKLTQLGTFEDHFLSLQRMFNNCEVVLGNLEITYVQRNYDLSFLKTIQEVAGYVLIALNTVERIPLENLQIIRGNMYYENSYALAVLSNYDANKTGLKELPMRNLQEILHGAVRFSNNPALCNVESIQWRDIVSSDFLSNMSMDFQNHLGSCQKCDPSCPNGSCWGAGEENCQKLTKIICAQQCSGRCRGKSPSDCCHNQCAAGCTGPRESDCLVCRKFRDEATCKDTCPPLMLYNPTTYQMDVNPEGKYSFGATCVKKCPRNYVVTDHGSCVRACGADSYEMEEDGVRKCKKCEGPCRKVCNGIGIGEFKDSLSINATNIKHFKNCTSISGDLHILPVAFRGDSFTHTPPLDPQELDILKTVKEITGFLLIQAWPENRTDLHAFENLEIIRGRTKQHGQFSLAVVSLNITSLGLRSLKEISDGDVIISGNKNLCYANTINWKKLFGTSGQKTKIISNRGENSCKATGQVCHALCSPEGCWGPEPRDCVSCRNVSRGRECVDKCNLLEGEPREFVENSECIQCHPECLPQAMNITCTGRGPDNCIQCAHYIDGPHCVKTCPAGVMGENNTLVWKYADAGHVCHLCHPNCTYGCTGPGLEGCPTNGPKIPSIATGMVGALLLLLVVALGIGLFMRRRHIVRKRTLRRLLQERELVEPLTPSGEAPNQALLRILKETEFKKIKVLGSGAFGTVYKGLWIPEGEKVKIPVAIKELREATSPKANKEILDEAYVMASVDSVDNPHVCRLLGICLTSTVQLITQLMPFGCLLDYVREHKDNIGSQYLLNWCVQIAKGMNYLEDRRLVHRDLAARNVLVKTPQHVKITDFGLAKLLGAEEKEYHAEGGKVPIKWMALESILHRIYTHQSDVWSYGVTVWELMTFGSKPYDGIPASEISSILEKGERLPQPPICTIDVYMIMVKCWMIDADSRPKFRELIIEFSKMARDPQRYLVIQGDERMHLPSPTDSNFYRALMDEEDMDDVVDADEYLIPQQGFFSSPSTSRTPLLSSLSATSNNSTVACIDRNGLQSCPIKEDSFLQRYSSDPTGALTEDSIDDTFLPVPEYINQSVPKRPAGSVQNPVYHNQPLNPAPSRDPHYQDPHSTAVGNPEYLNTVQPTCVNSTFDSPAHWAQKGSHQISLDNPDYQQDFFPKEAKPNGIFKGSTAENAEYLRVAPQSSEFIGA
# PROCEDURE TEXT: Inhibitor activity on EGFR-dependent cell growth (CellTiter-Glo, 72 h), Ba/F3 EGFR exon 20 SVD Ins
# Type: cell-based
# EXPERIMENTAL PARAMETERS: read-out: BaF3 SVD IC50
READOUT LABEL: IC50

>  <MOLECULE>
COc1c(F)cccc1Nc1c(-c2ccnc3ccc(N(C)C)nc23)[nH]c2c1C(=O)NCC2

>  <RESULT>
< 100 nM

$$$$
>  <MOLECULE>
COc1ccc2nccc(-c3[nH]c4c(c3Nc3cccc(Cl)c3OC)C(=O)NCC4)c2c1

>  <RESULT>
> 1000 nM

$$$$
>  <MOLECULE>
COc1ccc2nccc(-c3[nH]c4c(c3Nc3cccc(Cl)c3OC)C(=O)NC[C@@H]4CCF)c2n1

>  <RESULT>
< 100 nM

$$$$
>  <MOLECULE>
COc1c(Cl)cccc1Nc1c(-c2ccnc(N)n2)[nH]c2c1C(=O)NC[C@@H]2C[C@@H]1COCCO1

>  <RESULT>
< 100 nM

$$$$
>  <MOLECULE>
COc1c(Cl)cccc1Nc1c(-c2ccnc(C)n2)[nH]c2c(C[C@@H]3COCCO3)c[nH]c(=O)c12

>  <RESULT>
< 100 nM

$$$$
>  <MOLECULE>
COCCNc1ccc2nccc(-c3[nH]c4c(c3Nc3cccc(Cl)c3OC)C(=O)NCC4)c2n1

>  <RESULT>
< 100 nM

$$$$
>  <MOLECULE>
COc1c(Cl)cccc1Nc1c(-c2ccnc3ccc(OCCCN4CCOCC4)nc23)[nH]c2c1C(=O)NCC2

>  <RESULT>
< 100 nM

$$$$
>  <MOLECULE>
COc1c(Cl)cccc1Nc1c(-c2ccnc3ccc(OC4COC4)nc23)[nH]c2c1C(=O)NCC21CC1

>  <RESULT>
< 100 nM

$$$$
>  <MOLECULE>
COc1c(F)cccc1Nc1c(-c2ccncc2F)[nH]c2c1C(=O)NC[C@@H]2C[C@@H]1CCO1 [Compound 422b]

>  <RESULT>
100 to 1000 nM

$$$$
>  <MOLECULE>
COCC[C@H]1CNC(=O)c2c1[nH]c(-c1ccnc(C)n1)c2Nc1cccc(F)c1OC [453b]

>  <RESULT>
< 100 nM

$$$$
>  <MOLECULE>
COc1c(Cl)cccc1Nc1c(-c2ccncc2F)[nH]c2c1C(=O)NC[C@@]21CCN(CC(F)F)C1

>  <RESULT>
< 100 nM

$$$$
>  <MOLECULE>
COc1c(Cl)cccc1Nc1c(-c2ccnc(Nc3cc(C)n(C)n3)n2)[nH]c2c1C(=O)NCC2

>  <RESULT>
< 100 nM

$$$$
>  <MOLECULE>
COc1cccc(Nc2c(-c3ccnc(N)n3)[nH]c3c2C(=O)NCC3)c1C

>  <RESULT>
> 1000 nM

$$$$
>  <MOLECULE>
CCn1nncc1Nc1nccc(-c2[nH]c3c(c2Nc2cccc(Cl)c2OC)C(=O)NCC3)n1

>  <RESULT>
< 100 nM

$$$$
>  <MOLECULE>
COc1c(Nc2c(-c3ccnc(N)n3)[nH]c3c2C(=O)NCC3)ccc(F)c1F

>  <RESULT>
100 to 1000 nM

$$$$
>  <MOLECULE>
COc1c(Cl)cccc1Nc1c(-c2ccnc(N)n2)[nH]c2c1C(=O)N[C@H](C)C2 [187b]

>  <RESULT>
< 100 nM

$$$$
>  <MOLECULE>
C=CC(=O)N1CCC2(CC1)CNC(=O)c1c2[nH]c(-c2ccncc2F)c1Nc1cc(F)cc(Cl)c1OC

>  <RESULT>
< 100 nM

$$$$
>  <MOLECULE>
Nc1nccc(-c2[nH]c3c(c2Nc2cccc(C(F)(F)F)c2)C(=O)NCC3)n1

>  <RESULT>
> 1000 nM

$$$$
>  <MOLECULE>
COc1c(Cl)cccc1Nc1c(-c2ccnc(NC(=O)c3cccc(F)c3)n2)[nH]c2c1C(=O)NCC2

>  <RESULT>
100 to 1000 nM

$$$$
>  <MOLECULE>
Nc1nccc(-c2[nH]c3c(c2Nc2ccc(F)c(F)c2)C(=O)NCC3)n1

>  <RESULT>
> 1000 nM

$$$$
>  <MOLECULE>
COc1ncc2nccc(-c3[nH]c4c(c3Nc3cccc(Cl)c3C)C(=O)NCC4)c2n1

>  <RESULT>
< 100 nM

$$$$
>  <MOLECULE>
Cc1c(F)cccc1Nc1c(-c2ccnc(N)c2F)[nH]c2c1C(=O)NCC2

>  <RESULT>
100 to 1000 nM

$$$$
>  <MOLECULE>
Cc1ccc(F)cc1Nc1c(-c2ccnc(N)n2)[nH]c2c1C(=O)NCC2

>  <RESULT>
> 1000 nM

$$$$
>  <MOLECULE>
COc1c(Cl)cccc1Nc1c(-c2nc(N)ncc2F)[nH]c2c1C(=O)NCC2

>  <RESULT>
> 1000 nM

$$$$
>  <MOLECULE>
COCC[C@@H]1CNC(=O)c2c1[nH]c(-c1ccncc1F)c2Nc1cccc(F)c1OC [421b]

>  <RESULT>
< 100 nM

$$$$
>  <MOLECULE>
C=CC(=O)N1CCC2(CC1)CNC(=O)c1c2[nH]c(-c2ccncn2)c1Nc1cccc(F)c1OC

>  <RESULT>
< 100 nM

$$$$
>  <MOLECULE>
COc1ncc2nccc(-c3[nH]c4c(c3Nc3cccc(F)c3OC)C(=O)NCC43CC3)c2n1

>  <RESULT>
< 100 nM

$$$$
>  <MOLECULE>
COc1c(Cl)cccc1Nc1c(-c2ccnc(NC3CCOCC3)n2)[nH]c2c1C(=O)NCC2

>  <RESULT>
> 1000 nM

$$$$
>  <MOLECULE>
COc1ncc2nccc(-c3[nH]c4c(c3Nc3cccc(F)c3F)C(=O)NCC4)c2n1

>  <RESULT>
< 100 nM

$$$$
>  <MOLECULE>
COc1c(Cl)cccc1Nc1c(-c2ccncc2F)[nH]c2c1C(=O)NC[C@@H]2CC(C)(C)O

>  <RESULT>
100 to 1000 nM

$$$$
>  <MOLECULE>
Nc1nccc(-c2[nH]c3c(c2Nc2cccc4ccoc24)C(=O)NCC3)n1

>  <RESULT>
> 1000 nM

$$$$
